- system_name: Aβ (1-42) (Homo sapiens, UniProt P05067)
- Construct: Aβ (1-42) peptide (Sigma-Aldrich)
- Sequence (P05067 672-713): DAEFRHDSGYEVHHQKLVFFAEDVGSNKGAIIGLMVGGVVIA
- assay_procedure: biochemical
- condition: self-induced aggregation, thioflavin-T; Aβ 20 μM, 37 °C, 24 h; NA = No potent inhibitory activity
measurement_kind: IC50 (µM)
Just the number please, in µM, no unit attached.

INPUT: // IC50 lookup, key: `Cc1nc(C)c(C(=O)OCCCOC(=O)c2ccccn2)nc1C`
OUTPUT: 49.1

INPUT: // IC50 lookup, key: `COc1cc(CC(=O)OCCCOC(=O)c2nc(C)c(C)nc2C)cc(OC)c1OC`
OUTPUT: 77.5

INPUT: // IC50 lookup, key: `Cc1nc(C)c(C(=O)OCCCOC(=O)c2cccc(F)c2)nc1C`
OUTPUT: 5.1

INPUT: // IC50 lookup, key: `Cc1nc(C)c(/C=C/C(=O)OCCCOC(=O)c2nc(C)c(C)nc2C)nc1C`
OUTPUT: 17.4

INPUT: // IC50 lookup, key: `COc1cc(OC)cc(C(=O)OCCCOC(=O)c2nc(C)c(C)nc2C)c1`
OUTPUT: 3.66

INPUT: // IC50 lookup, key: `COc1ccc(C(=O)OCCCOC(=O)c2nc(C)c(C)nc2C)cc1F`
OUTPUT: 7.12

INPUT: // IC50 lookup, key: `COc1ccc(C(=O)OCCCOC(=O)c2nc(C)c(C)nc2C)c(OC)c1`
OUTPUT: 22.5

INPUT: // IC50 lookup, key: `Cc1nc(C)c(C(=O)OCCCOC(=O)Cc2ccc(Br)cc2)nc1C`
OUTPUT: 201

INPUT: // IC50 lookup, key: `Cc1nc(C)c(C(=O)OCCCOC(=O)c2ccc(F)cc2)nc1C`
OUTPUT: 211

INPUT: // IC50 lookup, key: `Cc1nc(C)c(C(=O)OCCCOC(=O)c2cccc(Cl)c2)nc1C`
OUTPUT: 45.9

INPUT: // IC50 lookup, key: `COc1ccc(/C=C/C(=O)OCCCOC(=O)c2nc(C)c(C)nc2C)cc1OC`
OUTPUT: 45.3

INPUT: // IC50 lookup, key: `COc1cc(/C=C/C(=O)OCCCOC(=O)c2nc(C)c(C)nc2C)cc(OC)c1OC`
OUTPUT: 71.3

INPUT: // IC50 lookup, key: `COc1cccc(OC)c1C(=O)OCCCOC(=O)c1nc(C)c(C)nc1C`
OUTPUT: 55.9

INPUT: // IC50 lookup, key: `COc1ccc(C(=O)OCCCOC(=O)c2nc(C)c(C)nc2C)cc1OC`
OUTPUT: 51.8
